# credit: PubChem BioAssay (NCATS)

- METHOD NOTES: Quantitative High-Throughput drug screen in 47 multiple myeloma cell lines against the NCATS MIPE library collection: ARP1_JJKsccF8 cell viability assay (AID 1918928; note: nearly all actives have a fitted effect of over 40% in size)
- MEASUREMENT CONDITIONS: ARP1 myeloma cells viability, CellTiter-Glo ATP, 48 h; series mostly up to 45.8 µM
Results filed as inconclusive are left out. Calls of active or inactive are those of the source. Calls come from the whole dose curve; as a rule, active = well fitted cell-killing curve with a large enough effect; inconclusive = small, poorly fitted or top-dose-only effect, or effect the other way; inactive = no such curve, though single readings can be large or run the other way.
Hi there, use one of these labels in your reply, thanks! active, inactive

Example results:
# MOLECULE, CLASS ASSIGNMENT
rows = [
    ("COc1ccc(-c2cc3c(C)nc(N)nc3n(C3CCC(OCCO)CC3)c2=O)cn1 (stereo not given)", "active"),
    ("Cc1ccc(S(=O)(=O)Nc2cc(Cl)ccc2C(=O)Nc2nc(-c3ccccc3)cs2)cc1", "active"),
    ("CCS(=O)(=O)c1cccc(-c2cc(C(=O)NC3CCN(C)CC3)c(C)c3[nH]c4ncc(C)cc4c23)c1", "active"),
]

What was the test verdict on O=C(O)Cn1nnc(-c2cc(N3CCC(Oc4cc(F)ccc4Br)CC3)no2)n1 ? inactive

What was the test verdict on Clc1ccc2ncc(-c3cccc(NC4CNC4)n3)n2c1 ? active
